System: 454973-116-R2-J3-PDC spheroids, viability, % test/control;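 also: spheroids exposed to compounds for seven days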
Assay: Anticancer human tumor 454973-116-R2-J3-PDC patient-derived pancreatic carcinoma cell line growth inhibition [GQUAD]; active = viability on the fitted dose curve at most 10% of control; inactive = the rest
Conditions: second compound 10 µM; first compound 0.0316 µM; spheroids with HUVEC and MSC
Reply using exactly one outcome from active, inactive

Molecule	Category
CC(C)(O)C1CCC(Nc2ccc3ncc(-c4cccc(C(F)(F)F)c4)n3n2)CC1 (stereo not drawn) + CN(C)c1ccc(Nc2c3ccc(NC(=O)CCN4CCCC4)cc3nc3cc(NC(=O)CCN4CCCC4)ccc23)cc1	inactive
COc1ccc([C@@H](O)c2cc(-c3ncnc4cc(N5CCOCC5)ccc34)c(F)cc2Cl)nn1 + Cc1cnc(CNC(=O)c2c(=O)c3ccc(N4CCCN(C)CC4)nc3n3c2sc2ccccc23)cn1	active
Cc1cccc(N(C)C(=O)C2C(O)CCN2c2nc(C)cc(C(F)(F)F)c2C#N)c1 (stereo not drawn) + CN(C)c1ccc(Nc2c3ccc(NC(=O)CCN4CCCC4)cc3nc3cc(NC(=O)CCN4CCCC4)ccc23)cc1	inactive

Next, consider the following molecule.
Any idea what this test logged for O=C(c1cc(Cc2n[nH]c(=O)c3ccccc23)ccc1F)N1CCN(C(=O)C2CC2)CC1 + CN(C)c1ccc(Nc2c3ccc(NC(=O)CCN4CCCC4)cc3nc3cc(NC(=O)CCN4CCCC4)ccc23)cc1 ?
inactive
